MEASUREMENT TARGET: human ether-à-go-go-related gene (hERG) potassium channel (human);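 note: peak tail current of the secondary pulse compared with the same well before compound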
Sequence (Q12809 whole entry, looked up): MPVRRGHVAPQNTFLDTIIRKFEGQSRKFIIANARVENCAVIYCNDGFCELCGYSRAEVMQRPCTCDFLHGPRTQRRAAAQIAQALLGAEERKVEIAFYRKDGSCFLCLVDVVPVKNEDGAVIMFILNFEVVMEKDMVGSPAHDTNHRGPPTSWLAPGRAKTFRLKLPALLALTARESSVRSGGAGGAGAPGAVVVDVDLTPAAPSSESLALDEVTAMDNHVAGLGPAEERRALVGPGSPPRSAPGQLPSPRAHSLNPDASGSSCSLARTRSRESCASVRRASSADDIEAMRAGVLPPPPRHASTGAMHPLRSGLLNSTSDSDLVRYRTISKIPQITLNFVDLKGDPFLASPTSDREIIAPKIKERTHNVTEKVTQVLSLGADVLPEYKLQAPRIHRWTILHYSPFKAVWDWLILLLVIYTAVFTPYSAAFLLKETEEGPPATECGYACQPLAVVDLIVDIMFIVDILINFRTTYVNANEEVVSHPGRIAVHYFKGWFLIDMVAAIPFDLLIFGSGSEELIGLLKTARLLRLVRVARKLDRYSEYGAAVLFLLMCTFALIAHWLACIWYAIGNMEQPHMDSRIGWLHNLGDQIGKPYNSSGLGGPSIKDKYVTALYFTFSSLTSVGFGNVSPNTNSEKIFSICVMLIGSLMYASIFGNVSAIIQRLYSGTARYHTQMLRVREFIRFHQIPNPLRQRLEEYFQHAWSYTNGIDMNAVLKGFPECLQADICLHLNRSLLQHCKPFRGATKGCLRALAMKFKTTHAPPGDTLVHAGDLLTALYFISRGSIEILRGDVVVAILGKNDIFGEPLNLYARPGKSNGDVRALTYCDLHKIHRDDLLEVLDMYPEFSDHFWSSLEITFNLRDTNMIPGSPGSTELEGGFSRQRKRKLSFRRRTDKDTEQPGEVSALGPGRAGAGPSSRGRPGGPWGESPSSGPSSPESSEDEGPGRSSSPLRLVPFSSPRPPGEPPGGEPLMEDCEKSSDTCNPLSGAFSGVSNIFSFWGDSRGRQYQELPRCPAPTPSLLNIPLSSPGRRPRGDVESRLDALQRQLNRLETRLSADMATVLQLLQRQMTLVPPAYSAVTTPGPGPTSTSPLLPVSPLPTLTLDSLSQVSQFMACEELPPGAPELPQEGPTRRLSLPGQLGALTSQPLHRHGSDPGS
PROCEDURE TEXT: primary screen, population patch clamp on CHO cells stably expressing hERG; higher = less effect of the substance
In all, about 310,000 compounds went through this assay and about 14,000 (4.5%) showed an effect of 50% or more. The effect is printed as a negative number. This is one part of a sample in which strong results are shown more often than they occur.
Label true when hERG current change (%, negative = inhibition) at 10uM is at or above -20%; otherwise label false.

INSERT INTO assay_data (compound, assigned_label) VALUES
  ('Cc1nnc(NC(=O)CSc2nnc(-c3ccc(S(=O)(=O)N4CCCC4)cc3)n2C)s1', 'true'),
  ('CCOc1ccc2[nH]c(=O)c(CN(CCO)C(=O)c3ccc(OC)c(OC)c3)cc2c1', 'true'),
  ('Cc1cc2nc(/N=C(\N)NC(=O)N3c4ccccc4Sc4ccccc43)nc(C)c2cc1C', 'false'),
  ('CCc1ccccc1NC(=S)N(CCN(C)C)Cc1cccs1', 'false'),
  ('CCOC(=O)c1ccc2c(c1)n(Cc1ccccc1)c(C)[n+]2CC.[O-][Cl+3]([O-])([O-])[O-]', 'true'),
  ('O=C(O)CNc1ncccc1[N+](=O)[O-]', 'false'),
  ('Cl.OC(COCc1ccc(Cl)cc1)CN1CCN(c2ccccn2)CC1 (stereo not drawn)', 'false'),
  ('CC(C)c1nnc(NC(=O)CC(=O)Nc2ccccc2C(=O)O)s1', 'true'),
  ('CCn1c(/C=C/Nc2ccccc2)[n+](CC)c2ccc(C(=O)OCC(F)(F)F)cc21.[I-]', 'false'),
  ('Cc1cc(OCC(O)CN2CCN(c3ccccn3)CC2)cc(C)c1Cl.Cl (stereo not drawn)', 'true'),
  ('COc1cc(/C=C2\S/C(=N/S(=O)(=O)c3ccccc3)NC2=O)c([N+](=O)[O-])cc1OC', 'true'),
  ('CCn1c(/C=C/N(C)c2ccccc2)[n+](CC)c2ccc(Cl)cc21.[I-]', 'true');

----------
hERG current change (%, negative = inhibition) at 10uM for assorted compounds
MEASUREMENT TARGET: human ether-à-go-go-related gene (hERG) potassium channel (human);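 note: peak tail current of the secondary pulse compared with the same well before compound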
PROCEDURE TEXT: primary screen, population patch clamp on CHO cells stably expressing hERG; higher = less effect of the substance
Among all 310,000 compounds or so, about 14,000 (4.5%) showed an effect of 50% or more. The effect is printed as a negative number. For the sample, strong results were picked, then their nearest neighbours and some compounds at random.
REPORTED METRIC: hERG current change (%, negative = inhibition) at 10uM (%)

INSERT INTO results (compound, result) VALUES
  ('COCCn1c(SCC(=O)N(C(C)C)C(C)C)nnc1-c1cc2ccccc2cc1O', -15.8),
  ('CN(C)CCCn1c(SCC(=O)N2c3ccccc3Sc3ccccc32)nc2ccccc2c1=O', -39.5),
  ('Cc1cc(N2CCN(C)CC2)nc2ccc(NC(=O)c3ccc4c(c3)OCO4)cc12', -62.2),
  ('Cc1ccc(C(=O)Nc2ccccc2C(=O)O)cc1S(=O)(=O)NCc1ccccc1', 9.8),
  ('O=C(CC1SC(N2CCCCC2)=NC1=O)Nc1cccc(C(F)(F)F)c1 (centres unmarked)', 12.3),
  ('Br.O=C(CN1C2=NCCCN2c2ccccc21)c1ccc(Br)s1', -67.2),
  ('O=C(/C(Cl)=C/Nc1ccc(Br)cn1)C(F)(F)F', 12.7),
  ('CCCOC(=O)CSc1nc(N2CCOCC2)c2c(c1C#N)CC(C)(C)OC2', -40.5),
  ('Br.O=C(CN1C2=NCCN2c2ccccc21)c1ccc(Br)s1', -64.5),
  ('COCCNS(=O)(=O)c1cc(-c2nn(C)c(=O)c3ccccc23)ccc1C', -28.9),
  ('O=C(Cc1ccc(F)cc1)OCC(=O)c1cc2ccccc2o1', -2.43),
  ('COc1ccc(C2Nc3ccccc3C(=O)N2Cc2ccco2)cc1CN1C(=O)c2ccccc2C1=O (centres unmarked)', -20.7),
  ('O=C(COc1ccc(-c2nnco2)cc1)NCc1ccccc1Cl', -6.27),
  ('O=c1cnc2ccccc2n1Cc1ccc(Br)cc1', 0.175),
  ('Cc1ccc(-c2nn(C)c(=O)c3ccccc23)cc1S(=O)(=O)N1CCCC1', -40.6),
  ('CCOC(=O)C1CCCN(Cc2ccc(OC)cc2OC)C1 (centres unmarked)', -52.7),
  ('CC1(C)C(c2cccs2)=[N+]([O-])C2(CCCCC/C2=N\O)N1O (centres unmarked)', 18.5),
  ('O=C(Cc1ccc(S(=O)(=O)N2CCOCC2)s1)OCc1ccc(Cl)cc1', -20.1),
  ('COCCn1cnc2c1c(=O)n(CC(=O)OCC(=O)NCCCc1ccccc1)c(=O)n2Cc1ccccc1', -57.9),
  ('Br.CCOC(=O)CN1C2=NCCN2c2ccccc21', 18.1),
  ('O=C(CSc1ccc(-c2ccco2)nn1)Nc1ccccc1F', -43.4),
  ('COc1ccc(C(=O)Nc2ccc3nc(N4CCN(C)CC4)cc(C)c3c2)c(OC)c1', -0.388),
  ('COc1ccc(CN2CCCC(C(=O)N3CCCC3)C2)c(OC)c1.O=C(O)C(=O)O (centres unmarked)', -9.41),
  ('Br.O=C(CN1C2=NCCN2c2ccccc21)c1cccs1', -31.3),
  ('CC(c1ccccc1)N1CCC(CNC(=S)Nc2cccc(Cl)c2)C1 (centres unmarked)', -29.2),
  ('CC(=O)Nc1ccc(NC(=O)CSc2ccc(-c3ccco3)nn2)cc1', -2.54),
  ('O=C(COc1ccc(Br)cc1CO)Nc1ccccc1F', -2.36),
  ('O=C(CN1C2=NCCCN2c2ccccc21)c1cccs1', -18.4),
  ('O=C1CSC(=S)N1Cc1cccnc1', -2.25),
  ('Fc1ccccc1Nc1nc2ccccc2n2nnnc12', 7.8),
  ('Cc1ccc(NC(=O)CSc2ccc(-c3ccco3)nn2)c(C)c1', -24.4),
  ('COc1ccc(Nc2cc(C)c3ccccc3n2)cc1', 4.57),
  ('O=C(CSc1ccc(-c2ccco2)nn1)Nc1ccccc1', -47.6),
  ('CCC(=O)N1N=C(c2ccc(C)o2)CC1c1ccc(Br)cc1 (centres unmarked)', -23.4),
  ('Cc1cc(-c2ccco2)n2c(nc3ccccc32)c1C#N', -25.9),
  ('Cc1ccc(NC(=S)NCC2CCN(C(C)c3ccccc3)C2)cc1C (centres unmarked)', -44.6),
  ('COC(=O)c1ccc(NC(=O)c2ccc3nc(C)sc3c2)cc1', 15.8),
  ('Cc1ccccc1NC(=S)NCC1CCN(C(C)c2ccccc2)C1 (centres unmarked)', 6.64);
